- tested.on: Human immunodeficiency virus type 1 integrase (Human immunodeficiency virus 1, UniProt Q7ZJM1)
- Sequence (Q7ZJM1 whole entry): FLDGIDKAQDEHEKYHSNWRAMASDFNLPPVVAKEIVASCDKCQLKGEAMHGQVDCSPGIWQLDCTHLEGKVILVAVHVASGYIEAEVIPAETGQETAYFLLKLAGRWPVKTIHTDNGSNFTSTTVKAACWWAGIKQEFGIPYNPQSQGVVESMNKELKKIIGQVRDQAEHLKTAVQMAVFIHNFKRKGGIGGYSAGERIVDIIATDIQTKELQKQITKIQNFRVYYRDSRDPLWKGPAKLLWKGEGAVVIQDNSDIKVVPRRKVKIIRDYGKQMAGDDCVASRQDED
- protocol.notes: Inhibitory activity against HIV-1 integrase
observable: IC50 (µM)

See these solved cases before continuing.
O=C1C(O)=C(C(C2=C(O)C(=O)c3ccccc3C2=O)c2ccc(C(C3=C(O)C(=O)c4ccccc4C3=O)C3=C(O)C(=O)c4ccccc4C3=O)cc2)C(=O)c2ccccc21 : 2.7
CCCCCCc1cc2c(cc1O)OC(=O)C(C(c1ccccc1)c1c(O)oc3cc(O)c(CCCCCC)cc3c1=O)C2O (stereo not drawn) : 12

(P) COc1cc(C(C2=C(O)C(=O)c3ccccc3C2=O)C2=C(O)C(=O)c3ccccc3C2=O)cc(Br)c1O
(Q) O=C1C(O)=C(C(C2=C(O)C(=O)c3ccccc3C2=O)c2ccc(Cl)c(Cl)c2)C(=O)c2ccccc21
Between P and Q , which one shows the larger IC50 value? // caller expects the label of the chosen entry
Q

* * *

- tested.on: Human immunodeficiency virus type 1 protease (Human immunodeficiency virus 1, UniProt Q72874)
- protocol.notes: Inhibitory activity against HIV-1 protease
observable: IC50 (µM)

For orientation, consider the following solved cases.
CCCCCCc1cc2c(cc1O)OC(=O)C(C(c1ccccc1)c1c(O)oc3cc(O)c(CCCCCC)cc3c1=O)C2O (centres undefined) : 0.32
O=c1c(C(c2ccc3c(c2)OCO3)c2c(O)oc3ccccc3c2=O)c(O)oc2ccccc12 : 30
O=C1C(=O)c2ccccc2C(O)=C1Cc1ccc(Cl)cc1 : 3
CCCCCCC/N=C1/C(=O)c2ccccc2C(O)=C1O : 33
O=C1C(=O)c2ccccc2C(O)=C1CCCC1CCC2CCCCC2C1 (centres undefined) : 8.5

(1) O=c1oc2ccccc2c(O)c1-c1ccccc1
(2) O=C1C(=O)c2ccccc2C(O)=C1CSc1ccc(Cl)cc1
Given the listed items, does 1 or 2 have the lesser reported IC50? Answer by stating the label of the chosen item.
1

(1) O=C1C(O)=C(C(C2=C(O)C(=O)c3ccccc3C2=O)c2ccc(Cl)cc2Cl)C(=O)c2ccccc21
(2) O=c1oc2c(-c3ccccc3)cccc2c(O)c1-c1ccccc1
Lower value of IC50 belongs to which: 1 or 2 ? Identify your selection by its label.
2

* * *

Consider the following compounds and their measured IC50 readings.
- tested.on: Human immunodeficiency virus type 1 integrase (Human immunodeficiency virus 1)
- protocol.notes: Inhibitory activity against HIV-1 integrase

O=C(c1cccc([N+](=O)[O-])c1)c1c(O)oc2ccccc2c1=O : > 100 µM
CCOC(=O)C(C1=C(O)C(=O)c2ccccc2C1=O)C1=C(O)C(=O)c2ccccc2C1=O : 60 µM
O=c1oc2ccccc2c(O)c1-c1ccccc1 : > 100 µM
COc1ccc2c(O)c(S(=O)(=O)c3ccc(C)cc3)c(=O)oc2c1 : > 100 µM

Entry under review: CCOC(=O)C(c1c(O)c2ccccc2oc1=O)c1c(O)c2ccccc2oc1=O [ETHYL BISCOUMACETATE] . Reported IC50?
> 100 µM

* * *

- tested.on: Human immunodeficiency virus type 1 protease (Human immunodeficiency virus 1, UniProt Q72874)
- protocol.notes: Inhibitory activity against HIV-1 Protease.
observable: IC50 (nM)

(1) O=c1c(C(c2ccc(C(c3c(O)oc4ccccc4c3=O)c3c(O)oc4ccccc4c3=O)cc2)c2c(O)oc3ccccc3c2=O)c(O)oc2ccccc12
(2) O=C1C(O)=C(C(C2=C(O)C(=O)c3ccccc3C2=O)c2ccc(C(C3=C(O)C(=O)c4ccccc4C3=O)C3=C(O)C(=O)c4ccccc4C3=O)cc2)C(=O)c2ccccc21
# compare IC50 for 1 vs 2 ; return the one with the smaller value Field: selected label. Fill in the label of the entry you choose.
2
(2: 750 nM, 1: 1700 nM)
